# System: SW-620 colon
# METHOD DESCRIPTION: NCI tumour cell line growth inhibition, 48 h
Record form. Attribute: TGI. Fill in for each entry.

Record N#Cc1c(-c2ccc(Cl)cc2)c(C#N)c(=O)n(NS(=O)(=O)c2ccccc2)c1O . Reported TGI: > 100 µM

Record O=c1oc2c/c(=C\c3ccc([N+](=O)[O-])cc3)c(=O)c3cccc1c3-2 . Reported TGI: > 100 µM

Record CCOC(=O)c1nc2cc(F)c(N3CCOCC3)cc2[nH]c1=O . Reported TGI: > 100 µM

Record COC(=O)c1cc2c(s1)-c1nccc3c1c(nc1ccccc13)C2=O . Reported TGI: > 100 µM

Record COc1ccc(-c2cc(/C=C/C(=O)c3ccc(OC)c(OC)c3)[nH]n2)cc1 . Reported TGI: 3.59 µM

Record CC1CN=C(N(C(=O)Nc2ccc(Cl)c(Cl)c2)c2ccccc2)S1 (stereo not drawn) . Reported TGI: > 100 µM

Record Cc1cc(/N=C/c2ccc(F)cc2)n(-c2ccccc2)n1 . Reported TGI: > 100 µM

Record FC(F)(F)c1ccc2c(c1)nc(-c1ccc(Cl)cc1)n2CC1CCCN2CCCCC12 (stereo not drawn) . Reported TGI: 38.1 µM
